For each of the compounds below, state its growth.
tested on: MDA-MB-468 breast; assay: NCI-60 one-dose screen, 48 h (100 = growth as untreated, 0 = no growth, -100 = all killed); conditions: 10 µM unless noted
This is part of a sample that, as a whole, favours compounds with a hit. Of some 83,000 tested, about 20% had one in any assay.
Numbers only, in %.

// solved cases for growth follow
# compound, growth [%]
data = [
    ("COc1ccc(C2C=C(c3ccc(Cl)cc3)N=C3SC=C(C)N32)c(Br)c1 (stereo not drawn)", 8.58),
    ("COc1ccc(/C=C2\\CN(C(=O)CCN3CCC(=NO)CC3)C/C(=C\\c3ccc(OC)cc3)C2=O)cc1", -27.5),
    ("S=c1[nH]nc(Cn2c3ccccc3c3ccncc32)o1", 115),
    ("COc1ccc(CCN2C(=O)CSC2=S)cc1OC", -2.77),
    ("CCOC(=O)NC(=S)n1oc(=O)c2ccccc21", 106),
]

I have 5 compounds here; please give me growth for each one.
1. Cc1nc2cccc(NCCCCC(=O)NO)c2c(=O)n1-c1ccccc1
2. Clc1cccc(Cl)c1Cn1c(-c2cncs2)nc2ccccc21
3. CCNCCNc1cc(C2CCCC2)c(C#N)c2nc3ccccc3n12
4. C=C1C(=O)O[C@H]2[C@H]1CC/C(COC(=O)CCSSCCC(=O)OC/C1=C/CC[C@@]3(C)O[C@H]3[C@H]3OC(=O)C(=C)[C@@H]3CC1)=C\CC[C@@]1(C)O[C@@H]21
5. C=CC(=O)Nc1cccc(-c2nc(SC)nc(NCCc3ccc(OC)c(OC)c3)c2C#N)c1

Result:
54.6
52.6
-25.5
-54
19.2

Return reported growth values for all items listed beneath this line.
1. CCOC(=O)c1c(C)nc2c(c1N)/C(=C/c1ccc(OC)cc1)C(=O)N2Cc1ccccc1
2. CC[C@@H]1NC(=O)[C@@H]2CCCCN2C(=O)[C@@H]2CCCN2C(=O)[C@@H](NC(=O)[C@H](Cc2cc(F)cc(F)c2)NC(=O)Nc2ccc(C3CC3)cc2F)[C@H](C)OC(=O)[C@@H]2C[C@@H](C)CN2C1=O

Result:
1. 66.7
2. -33.6

* * *

system: MDA-MB-468 breast; assay: NCI-60 one-dose screen, 48 h (100 = growth as untreated, 0 = no growth, -100 = all killed); details: 10 µM unless noted
Compounds without any hit were thinned out: in the full panel of roughly 83,000, 20% have a hit.
Hi there, I'd appreciate the recorded growth for every entry that follows.
Numbers only, in %.

The following compounds have reported results that may help.
# compound, measured
records = [
    ("COc1ccc(C2CC(c3cccc(Nc4ccncc4)c3)=NN2c2ccc(Cl)cc2)cc1 (stereo not drawn)", 45.3),
    ("NC(CCl)=NCC12CC3CC(CC(C3)C1)C2", -31.3),
    ("COC1OCC(OS(=O)(=O)c2ccc(C)cc2)C(OC(=O)c2ccccc2)C1OC(=O)c1ccccc1 (stereo not drawn)", 13),
]

Fill in growth for each of the 4 compounds listed.
1. O=C(N/N=C/c1ccc([N+](=O)[O-])o1)c1ccc(O)cc1
2. COC(=O)[C@]12CCC(C)(C)C[C@H]1[C@H]1C(=O)C[C@@H]3[C@@]4(C)c5c([nH]c6ccccc6c5=O)C(C)(C)[C@@H]4CC[C@@]3(C)[C@]1(C)CC2
3. CS(=O)(=O)c1ccc2c(c1)c1c(n2S(=O)(=O)c2ccc(Cl)cc2)CCCC1
4. Clc1ccc(-c2cnc3c(-c4ccnc(N5CCNCC5)c4)cnn3c2)cc1

Result:
[12.8, 34.5, 42.3, 16.3]

Q: Fill in reported growth for this entry: `CC1(C)C(=O)/C(=C\c2cccnc2)C[C@]2(C)[C@H]3CC[C@@H]4[C@@H](C(=O)/C=C/c5ccncc5)CC[C@@]4(C)[C@]3(C)CC[C@@H]12`
Result: -5.14

* * *

test system: MDA-MB-468 breast; assay: NCI-60 one-dose screen, 48 h (100 = growth as untreated, 0 = no growth, -100 = all killed); conditions: 10 µM unless noted
This is part of a sample that, as a whole, favours compounds with a hit. Of some 83,000 tested, about 20% had one in any assay. Calls of active or inactive are those of the source. The calls were made as follows: active = growth percent below 10; inactive = the rest.
reported-property: growth

Answered cases to consult:
# smiles-string, target-or-system, reported-property, measured
measured = [
    ("Clc1ccc(-c2nc(-c3c[nH]c4ncccc34)cs2)cc1", "MDA-MB-468 breast", "growth", "80.2% [100 µM] (inactive)"),
    ("N#CC(C#N)=C1NC(c2ccccc2)=C(c2ccccc2)C(c2ccccc2Cl)=C1C#N", "MDA-MB-468 breast", "growth", "129% (inactive)"),
    ("CN(C)c1ccc(/C=c2\\s/c(=C\\C(=O)C(C)(C)C)[nH]c2=O)cc1", "MDA-MB-468 breast", "growth", "109% (inactive)"),
]

The following molecules each have a reported value; give each one's growth.
1. CN(CCn1sc(=O)n(Cc2ccccc2)c1=O)Cc1ccc2c(Cl)cc(Cl)c(O)c2n1
2. O=C1C=CC(=O)N1c1ccccc1N1C(=O)C=CC1=O

Result:
1. 42.4% (inactive)
2. 104% (inactive)

* * *

system: MDA-MB-468 breast; experiment: NCI-60 one-dose screen, 48 h (100 = growth as untreated, 0 = no growth, -100 = all killed); settings: 10 µM unless noted
This is part of a sample that, as a whole, favours compounds with a hit. Of some 83,000 tested, about 20% had one in any assay. Calls of active or inactive are those of the source. How the source made its calls: active means growth percent below 10; inactive means the rest.
What growth was measured for each of the following?

# compound, measured
data = [
    ("CN(C)CCCSc1ccccc1NC1=C(Cl)C(=O)C(Nc2ccccc2SCCCN(C)C)=C(Cl)C1=O", "-61.4% (active)"),
    ("Cn1cc(-c2csc(-c3c[nH]c4ncccc34)n2)c2cc(F)cnc21", "-16% (active)"),
    ("NS(=O)(=O)c1ccc(-n2cc(CN3CCCCC3)nn2)cc1", "101% (inactive)"),
    ("CC(O)C(NC(=O)C1CCCN1C(=O)CNC(=O)C1CC(=O)NCC(=O)NC(Cc2c[nH]c3ccccc23)C(=O)NC(Cc2ccc(O)cc2)C(=O)NCC(=O)NC(CO)C(=O)NC(CCC(N)=O)C(=O)NC(Cc2c[nH]c3ccccc23)C(=O)N1)C(=O)NCC(=O)NC(CCC(N)=O)C(=O)NC(CCCNC(=N)N)C(=O)NC(CC(=O)O)C(=O)O (configuration not stated)", "100% (inactive)"),
    ("Cc1ccc(C2=Nc3c(ccc4c(C)c(C)c(=O)oc34)OC2)cc1", "113% (inactive)"),
]

Report growth for each item below.
1. COc1cc2c(cc1O)CC[C@@H]1[C@@H]2CC[C@]2(C)[C@@H](OCCN(C)C)CC[C@@H]12
2. COC(=O)[C@@]12CC=C(C)[C@]3(C[C@H](c4ccoc4)OC3=O)[C@H]1C=C[C@@H](O)[C@@]2(O)C(=O)OC
3. O=c1c2cc(F)ccc2sc2c(NCCCNCCO)nc3ccccc3c12

Result:
["19.3% (inactive)", "121% (inactive)", "-72.8% (active)"]

# batch: return growth for each of the 4 compounds below
1. Cc1cc(C(=O)Nc2ncnc3nc[nH]c23)no1
2. Cc1cc2nc(C(Cl)Cl)nc(-c3ccccc3)n2n1
3. CCCCC/C(C=C(C#N)C#N)=C/c1ccccc1
4. OCc1ccccn1

Result:
1. 96.4% (inactive)
2. -20.7% (active)
3. 97.9% (inactive)
4. 99.9% (inactive)

Working through the 7 compounds below one at a time, give growth for each.
1. CN(C)c1ccc2oc(=O)c3ccccc3c2c1
2. O=C(Cc1nc2cc(Cl)c(Cl)cc2nc1CC(=O)c1cccnc1)c1cccnc1
3. O=C(NNC(=O)c1cccc(Cl)c1)c1ccccc1
4. c1cc(NCCc2ccncc2)nc(-n2cnc3ccccc32)c1
5. CSc1nc2ncncc2[nH]1
6. COc1cc2ncnc(Oc3cccc(NC(=O)Nc4cc(C(C)(C)C(F)(F)F)on4)c3)c2cc1OC
7. O=C(CSc1nnc(-c2cccnc2SCc2ccccc2)o1)Nc1nc(Cl)cc(Cl)n1

Result:
["78.3% (inactive)", "33.8% (inactive)", "94.4% (inactive)", "95% (inactive)", "103% (inactive)", "12.4% (inactive)", "98.8% (inactive)"]

Respectfully, I request growth for each entry included below.
1. COc1cc(-c2nn(-c3cccc(NC(=O)NCCNC(=O)c4cccc(C(F)(F)F)c4)c3)cc2-c2ccncc2)ccc1Cl
2. CNC(=O)CN1CCC(Oc2cc3c(Nc4cccc(Cl)c4F)ncnc3cc2OC)CC1
3. c1ccc(-c2nc3nonc3nc2-c2ccccc2)cc1
4. CCCCCCCCCCCCCC[n+]1ccc2c(C)c3c(c(C)c2c1)c1cc(O)ccc1n3CC
5. CC1=C(CCC(C)NCc2ccc(OCCCN3CCCCC3)cc2)C(C)(C)CCC1 (configuration not stated)

Result:
7.11% (active)
-22.9% (active)
38.9% (inactive)
-63.6% (active)
-92.7% (active)
